Test system Prostaglandin G/H synthase 1 (Ovis aries, UniProt P05979), IC50 listed for each of the compounds.
readoutName: IC50

[[record]]
querysmiles = "CC(=O)NS(=O)(=O)c1ccc(C2=C(c3ccc(S(C)(=O)=O)cc3)COC2=O)cc1"
reportedresult = "3.2 µM"

[[record]]
querysmiles = "CS(=O)(=O)c1ccc(C2=C(c3ccc(S(N)(=O)=O)cc3)COC2=O)cc1"
reportedresult = "> 100 µM"

[[record]]
querysmiles = "CC(=O)NS(=O)(=O)c1ccc(C2=C(c3ccc(S(C)(=O)=O)cc3)C(=O)OC2)cc1"
reportedresult = "> 100 µM"


---

- studySystem: Prostaglandin G/H synthase 2 (Ovis aries, UniProt P79208)
- Sequence (P79208 whole entry): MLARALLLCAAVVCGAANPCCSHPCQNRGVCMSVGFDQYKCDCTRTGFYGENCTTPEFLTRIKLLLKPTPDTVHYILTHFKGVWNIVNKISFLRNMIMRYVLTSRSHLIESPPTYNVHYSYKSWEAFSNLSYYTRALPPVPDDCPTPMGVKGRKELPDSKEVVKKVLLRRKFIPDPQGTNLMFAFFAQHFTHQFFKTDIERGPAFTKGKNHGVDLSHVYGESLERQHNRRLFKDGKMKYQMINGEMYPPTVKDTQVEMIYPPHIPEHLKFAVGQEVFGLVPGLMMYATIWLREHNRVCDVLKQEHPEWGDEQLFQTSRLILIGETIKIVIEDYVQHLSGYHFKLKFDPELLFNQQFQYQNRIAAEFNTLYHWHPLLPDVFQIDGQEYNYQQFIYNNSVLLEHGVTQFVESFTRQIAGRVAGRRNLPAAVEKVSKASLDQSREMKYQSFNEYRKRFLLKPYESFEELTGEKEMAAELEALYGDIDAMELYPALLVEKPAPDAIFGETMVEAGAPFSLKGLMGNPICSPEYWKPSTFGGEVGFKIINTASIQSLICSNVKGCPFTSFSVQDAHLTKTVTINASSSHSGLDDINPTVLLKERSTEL
pIC50: −log10 of the molar value.
readoutName: pIC50

[[record]]
querysmiles = "CS(=O)(=O)c1ccc(C2=C(c3ccc(S(=O)(=O)N=[N+]=[N-])cc3)C(=O)OC2)cc1"
readoutname = "pIC50"
measurementqualifier = "="
reportedresult = 4.96

[[record]]
querysmiles = "CC(=O)NS(=O)(=O)c1ccc(C2=C(c3ccc(S(C)(=O)=O)cc3)COC2=O)cc1"
readoutname = "pIC50"
measurementqualifier = "="
reportedresult = 5.34

[[record]]
querysmiles = "CS(=O)(=O)c1ccc(C2=C(c3ccc(S(N)(=O)=O)cc3)COC2=O)cc1"
readoutname = "pIC50"
measurementqualifier = "<"
reportedresult = 4.00

[[record]]
querysmiles = "CS(=O)(=O)c1ccc(C2=C(c3ccccc3)C(=O)OC2)cc1"
readoutname = "pIC50"
measurementqualifier = "<"
reportedresult = 6.37

[[record]]
querysmiles = "CC(=O)NS(=O)(=O)c1ccc(C2=C(c3ccc(S(C)(=O)=O)cc3)C(=O)OC2)cc1"
readoutname = "pIC50"
measurementqualifier = "="
reportedresult = 7.30


Hello, the source for this data is ChEMBL document CHEMBL1147521, in case you need it.
